Each recorded value in this set is attributed to ChEMBL document CHEMBL1153856.

Each entry below lists one item and its recorded MIC value.
# Tested on: Rhizopus
# Method Notes: Antimicrobial activity against Rhizopus sp. after 72 to 96 hrs by twofold serial dilution method
# Assay type: functional
Observation Type: MIC (µg/mL)

* CC(C)C1C(=O)CC(c2ccccc2)N(C(=O)CN2CCN(C)CC2)C1c1ccccc1 (stereo not given) | 50
* Cc1ccc(C2C(C)C(=O)C(C)C(c3ccc(C)cc3)N2C(=O)CN2CCN(C)CC2)cc1 (stereo not given) | 25
* COc1ccc(C2CC(=O)C(C)C(c3ccc(OC)cc3)N2C(=O)CN2CCN(C)CC2)cc1 (stereo not given) | 50
* CC1C(=O)C(C)C(c2ccc(Cl)cc2)N(C(=O)CN2CCN(C)CC2)C1c1ccc(Cl)cc1 (stereo not given) | 6.25
* CC1C(=O)CC(c2ccc(Cl)cc2)N(C(=O)CN2CCN(C)CC2)C1c1ccc(Cl)cc1 (stereo not given) | 12.5
* C[C@@H]1[C@H](O)[C@@H](C)/C=C/C=C/C=C/C=C/C=C/C=C/C=C/[C@H](O[C@@H]2O[C@H](C)[C@@H](O)[C@H](N)[C@@H]2O)C[C@@H]2O[C@](O)(C[C@@H](O)C[C@@H](O)[C@H](O)CC[C@@H](O)C[C@@H](O)CC(=O)O[C@H]1C)C[C@H](O)[C@H]2C(=O)O [AMPHOTERICIN B] | 25
* COc1ccc(C2C(C)C(=O)C(C)C(c3ccc(OC)cc3)N2C(=O)CN2CCN(C)CC2)cc1 (stereo not given) | 25
* CC1C(=O)C(C)C(c2ccccc2)N(C(=O)CN2CCN(C)CC2)C1c1ccccc1 (stereo not given) | 50

###

# Tested on: Staphylococcus aureus
# Method Notes: Antimicrobial activity against Staphylococcus aureus after 24 hrs by twofold serial dilution method
# Format: functional
Observation Type: MIC

- CC1C(=O)CC(c2ccccc2)N(C(=O)CN2CCN(C)CC2)C1c1ccccc1 (centres undefined): > 200 µg/mL
- CC1C(=O)CC(c2ccc(Cl)cc2)N(C(=O)CN2CCN(C)CC2)C1c1ccc(Cl)cc1 (centres undefined): 50 µg/mL
- CC1C(=O)C(C)C(c2ccc(Cl)cc2)N(C(=O)CN2CCN(C)CC2)C1c1ccc(Cl)cc1 (centres undefined): 6.25 µg/mL
- CC(C)C1C(=O)CC(c2ccccc2)N(C(=O)CN2CCN(C)CC2)C1c1ccccc1 (centres undefined): 200 µg/mL

###

Each entry below lists one item and its recorded inhibition in vivo at 90 mg/kg value.
# System: Mus musculus
# Method Notes: Analgesic activity in albino mouse assessed as inhibition of acetic acid-induced writhing response at 90 mg/kg, po administered 1 hr prior to acetic acid challenge relative to control
# Assay type: functional
Observation Type: inhibition in vivo at 90 mg/kg (%)

• CC(=O)Oc1ccccc1C(=O)O [ASPIRIN] = 38.6
• COc1ccc(C2CC(=O)C(C)C(c3ccc(OC)cc3)N2C(=O)CN2CCN(C)CC2)cc1 (stereo not given) = 48
• CC1C(=O)C(C)C(c2ccc(Cl)cc2)N(C(=O)CN2CCN(C)CC2)C1c1ccc(Cl)cc1 (stereo not given) = 38.9
• CC1C(=O)CC(c2ccc(Cl)cc2)N(C(=O)CN2CCN(C)CC2)C1c1ccc(Cl)cc1 (stereo not given) = 61.6
• CC1C(=O)CC(c2ccccc2)N(C(=O)CN2CCN(C)CC2)C1c1ccccc1 (stereo not given) = 17.7
• Cc1ccc(C2C(C)C(=O)C(C)C(c3ccc(C)cc3)N2C(=O)CN2CCN(C)CC2)cc1 (stereo not given) = 33.1
• CC1C(=O)C(C)C(c2ccccc2)N(C(=O)CN2CCN(C)CC2)C1c1ccccc1 (stereo not given) = 13.9
• COc1ccc(C2C(C)C(=O)C(C)C(c3ccc(OC)cc3)N2C(=O)CN2CCN(C)CC2)cc1 (stereo not given) = 38.7
• CCC1C(=O)CC(c2ccccc2)N(C(=O)CN2CCN(C)CC2)C1c1ccccc1 (stereo not given) = 1.2
• CC(C)C1C(=O)CC(c2ccccc2)N(C(=O)CN2CCN(C)CC2)C1c1ccccc1 (stereo not given) = 2.2
